Data provenance: paper PMC12167799

Target: T1, SWSAP1 K18A (Walker A);hSWS1 (Homo sapiens;Homo sapiens, UniProt Q6NVH7;Q19AV6 22-250;1-140, K39A|)
T1 sequence 1: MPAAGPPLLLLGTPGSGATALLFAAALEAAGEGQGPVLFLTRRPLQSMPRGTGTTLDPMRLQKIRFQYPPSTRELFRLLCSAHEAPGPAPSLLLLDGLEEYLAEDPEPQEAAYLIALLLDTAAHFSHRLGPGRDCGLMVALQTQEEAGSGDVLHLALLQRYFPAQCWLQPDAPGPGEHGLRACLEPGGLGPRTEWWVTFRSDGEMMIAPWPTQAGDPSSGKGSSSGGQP
T1 sequence 2: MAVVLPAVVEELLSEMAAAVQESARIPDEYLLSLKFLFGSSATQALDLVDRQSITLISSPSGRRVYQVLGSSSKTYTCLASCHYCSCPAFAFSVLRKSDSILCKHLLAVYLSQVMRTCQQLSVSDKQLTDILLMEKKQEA
Assay: fluorescence polarization; no nucleotide; FPA: 5 nM 6-FAM DNA, 37 C, 2 mM nucleotide where stated (buffer not given in material); EMSA: 0.05 uM 6-FAM DNA, 5%/15% native PAGE; RAD51 filaments: 2 mM ATP
Conditions: protein: recombinant;recombinant; tags: N-terminal 6xHis-TEV, cleaved;none; copies: 1;1; label: 3' 6-FAM on strand 1; blunt
PROPERTY: pKd
# pKd is unitless: minus log10 of the molar concentration; print number only

Exercise: # pKd lookup, item ds39 (dsDNA) DNA 1: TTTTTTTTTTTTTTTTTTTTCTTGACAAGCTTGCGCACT DNA 2: AGTGCGCAAGCTTGTCAAGAAAAAAAAAAAAAAAAAAAA
Solution: 4.91
